Reference for the values: patent US9815796B2

# subject of test: Rhesus PDE2A3 (Macaca mulatta)
# test name: PDE2 fluorescence polarization (IMAP FP) inhibition assay, rhesus enzyme
# Format: biochemical, rhesus macaque
# setup conditions: Rhesus PDE2, Lab B; read-out: Rhesus PDE2 Ki (nM) - Lab B
// classify: if (Ki < 5 nM) 1 else 0

Use the examples below as a reference point.
compound="Cc1nc(C(=O)N[C@@H](c2ccc(C(F)(F)F)cc2)C(C)(C)C)cc(=O)[nH]1 [Example 249]" class_assignment=1
compound="CC(C)(C)[C@@H](NC(=O)c1cc(=O)[nH]c(-c2ccccc2)n1)c1ccc(OC(F)(F)F)cc1 [Example 462]" class_assignment=1
compound="C[C@@H](NC(=O)c1cc(=O)[nH]c(-c2ccccc2)n1)c1ccc(O)cc1 [Example 339]" class_assignment=0
compound="O=C(N[C@@H](c1ccc(C(F)(F)F)c(F)c1)C1CC1)c1cc(=O)[nH]c(-c2ncccn2)n1 [Example 91]" class_assignment=0
compound="C[C@@H](NC(=O)c1cc(=O)[nH]c(-c2ccccc2)n1)c1ccc(S(F)(F)(F)(F)F)cc1 [Example 401]" class_assignment=0

State whether 5 nM exceeds Ki recorded for CC(C)[C@@H](NC(=O)c1cc(=O)[nH]c(-c2ncccn2)n1)c1ccc(C(F)(F)F)c(F)c1 [Example 248] .
1

Answer whether the compound COc1ccc(Cc2nc(C(=O)N[C@@H](c3ccc(C(F)(F)F)c(F)c3)C(C)(C)C)cc(=O)[nH]2)cc1F [Example 508] has Ki strictly less than 5 nM
1

---

# subject of test: Rhesus PDE2A3 (Macaca mulatta, UniProt B3VTJ2)
# Sequence (B3VTJ2 1-941): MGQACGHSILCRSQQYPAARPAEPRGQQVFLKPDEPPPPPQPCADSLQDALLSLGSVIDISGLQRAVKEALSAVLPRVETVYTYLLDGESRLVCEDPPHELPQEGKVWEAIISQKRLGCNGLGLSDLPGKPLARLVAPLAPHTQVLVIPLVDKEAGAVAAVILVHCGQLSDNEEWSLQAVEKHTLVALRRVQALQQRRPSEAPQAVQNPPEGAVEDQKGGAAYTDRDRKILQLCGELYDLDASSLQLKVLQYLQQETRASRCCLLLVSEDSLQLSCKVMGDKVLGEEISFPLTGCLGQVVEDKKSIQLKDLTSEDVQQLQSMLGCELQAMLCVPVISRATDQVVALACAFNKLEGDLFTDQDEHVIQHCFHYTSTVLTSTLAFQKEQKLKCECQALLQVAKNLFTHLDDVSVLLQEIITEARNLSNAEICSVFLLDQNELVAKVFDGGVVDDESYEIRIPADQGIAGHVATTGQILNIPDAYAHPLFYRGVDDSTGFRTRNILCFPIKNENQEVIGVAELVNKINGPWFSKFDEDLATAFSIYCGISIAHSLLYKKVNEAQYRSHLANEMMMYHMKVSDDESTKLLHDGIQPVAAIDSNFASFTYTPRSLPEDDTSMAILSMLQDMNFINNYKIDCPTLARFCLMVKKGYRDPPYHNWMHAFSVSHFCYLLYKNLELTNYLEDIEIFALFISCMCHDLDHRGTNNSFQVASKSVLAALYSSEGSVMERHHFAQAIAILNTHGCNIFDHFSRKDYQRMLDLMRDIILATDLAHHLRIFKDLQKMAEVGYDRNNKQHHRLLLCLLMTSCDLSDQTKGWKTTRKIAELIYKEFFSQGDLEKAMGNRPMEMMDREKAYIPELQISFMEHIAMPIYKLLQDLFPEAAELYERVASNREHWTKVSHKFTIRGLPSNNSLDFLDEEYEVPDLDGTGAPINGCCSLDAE
# test name: PDE2 fluorescence polarization (IMAP FP) inhibition assay, rhesus enzyme
# Format: biochemical, rhesus macaque
# setup conditions: Rhesus PDE2, Lab B; read-out: Rhesus PDE2 Ki (nM) - Lab B
assay readout: log10(Ki) (log10 of the value in nM)
Recall that a logarithmic scale is used here: each number is log10 of Ki in nM.

Below, 5 molecules whose answers are already recorded.
molecule="C[C@@H](NC(=O)c1cc(=O)[nH]c(-c2ncccn2)n1)c1cc(F)c(C(F)(F)F)cc1F [Example 429]" assay_readout=log10(Ki) assay_value=1.62
molecule="COc1ccc(C(C)(C)c2nc(C(=O)N[C@@H](c3ccc(OC(F)(F)F)c(F)c3)C(C)(C)C)cc(=O)[nH]2)cc1 [Example 487]" assay_readout=log10(Ki) assay_value=1.79
molecule="COc1ccc(Cc2nc(C(=O)N[C@@H](c3ccc(C(F)(F)F)cc3)C(C)C)cc(=O)[nH]2)cc1 [Example 474]" assay_readout=log10(Ki) assay_value=0.15
molecule="Cc1nc(C(=O)NC(C)(C)c2ccc(SC(F)(F)F)c(F)c2)cc(=O)[nH]1 [Example 259]" assay_readout=log10(Ki) assay_value=2.32
molecule="C[C@@H](NC(=O)c1cc(=O)[nH]c(-c2ccccc2)n1)c1ccc(N(C)C)cc1 [Example 374]" assay_readout=log10(Ki) assay_value=1.56

Quote log10(Ki) reported for O=C(NC(CCO)c1ccc(C(F)(F)F)cc1)c1cc(=O)[nH]c(-c2ccccc2)n1 (stereo not shown) [Example 421] please.
1.15

Return log10(Ki) (reported value) for this molecule: Cc1nc(C(=O)N[C@H](C)c2ccc(C3CC3)cc2)cc(=O)[nH]1 [Example 258]
1.61

Could you please provide reported log10(Ki) for CC(C)c1ccc(CNC(=O)c2cc(=O)[nH]c(-c3ccccc3)n2)cc1 [Example 414] ? Thanks!
2.13

Kindly indicate its recorded log10(Ki). Item: CC(C)[C@@H](NC(=O)c1cc(=O)[nH]c(-c2ncccn2)n1)c1ccc(SC(F)(F)F)c(F)c1 [Example 245]
0.11

Look up log10(Ki) of COc1ccc(Cc2nc(C(=O)N[C@@H](c3ccc(C(F)(F)F)c(F)c3)C(C)C)cc(=O)[nH]2)cc1 [Example 472] and report it.
0.20

Look up and report measured log10(Ki) for this entry: COc1cc(C(C)NC(=O)c2cc(=O)[nH]c(-c3ccccc3)n2)cc(OC)c1OC (stereo not shown) [Example 351]
2.34

In one line, give reported log10(Ki) of the entry CC[C@@H](NC(=O)c1cc(=O)[nH]c(Cc2ccc(OC)c(F)c2)n1)c1ccc(OC(F)(F)F)c(F)c1 [Example 528] .
0.08

Quote log10(Ki) reported for COc1ccc(Cc2nc(C(=O)N[C@@H](c3ccc(S(F)(F)(F)(F)F)cc3)C3CC3)cc(=O)[nH]2)cc1F [Example 510] please.
0.52

Return reported log10(Ki). Input molecule: Cc1nc(C(=O)N[C@@H](c2ccc(S(F)(F)(F)(F)F)cc2)C(C)(C)C)cc(=O)[nH]1 [Example 618]
0.30

Supply recorded log10(Ki) for O=C(N[C@@H](c1ccc(C2CC2)cc1)C1CC1)c1cc(=O)[nH]c(-c2ncccn2)n1 [Example 453] here.
0.86

Report log10(Ki), nothing else, for this molecule: Cc1nc(C(=O)N[C@@H](c2ccc(C(F)(F)F)cc2F)C(C)(C)C)cc(=O)[nH]1 [Example 617]
0.62

Give log10(Ki) for Cc1nc(C(=O)N[C@@H](c2ccc(S(F)(F)(F)(F)F)cc2)C2(C)CC2)cc(=O)[nH]1 [Example 424]
0.86

Provide only the value of recorded log10(Ki) for CC(NC(=O)c1cc(=O)[nH]c(-c2ccccc2)n1)c1ccc(C#N)cc1 (stereo not shown) [Example 370]
2.73

---

# subject of test: Rhesus PDE2A3 (Macaca mulatta, UniProt B3VTJ2)
# test name: PDE2 fluorescence polarization (IMAP FP) inhibition assay, rhesus enzyme
# Type: biochemical, rhesus macaque
# setup conditions: Rhesus PDE2, Lab A; read-out: Rhesus PDE2 Ki (nM) - Lab A
# Experimental: The activity of the compounds in accordance with the present invention as PDE2 inhibitors may be readily determined using a fluorescence polarization (FP) methodology (Huang, W., et al., J. Biomol Screen, 2002, 7: 215). In a typical experiment the PDE2 inhibitory activity of the compounds of the present invention was determined in accordance with the following experimental method. […] 0% of inhibition is determined by using DMSO (1% final concentrations). […]
assay readout: Ki (nM)
Entry rule: numbers only, all in nM.

Examples with their reported Ki follow.
molecule="COc1ccc2cc(C(C)NC(=O)c3cc(=O)[nH]c(C)n3)ccc2c1 (single isomer, unassigned) [Example 313]" assay_value=51
molecule=Cc1nc(C(=O)N[C@H](C)c2ccc(OC(F)F)cc2)cc(=O)[nH]1 assay_value=91

// switching to the query molecule
Please give the documented Ki of CC(C)(NC(=O)c1cc(=O)[nH]c(C2CC2)n1)c1ccc(SC(F)(F)F)cc1
89

---

The following compounds are shown together with reported Ki values.
# subject of test: human PDE2A1 (Homo sapiens (Human))
# Sequence (O00408 other isoform, or with tags, fused parts or gaps): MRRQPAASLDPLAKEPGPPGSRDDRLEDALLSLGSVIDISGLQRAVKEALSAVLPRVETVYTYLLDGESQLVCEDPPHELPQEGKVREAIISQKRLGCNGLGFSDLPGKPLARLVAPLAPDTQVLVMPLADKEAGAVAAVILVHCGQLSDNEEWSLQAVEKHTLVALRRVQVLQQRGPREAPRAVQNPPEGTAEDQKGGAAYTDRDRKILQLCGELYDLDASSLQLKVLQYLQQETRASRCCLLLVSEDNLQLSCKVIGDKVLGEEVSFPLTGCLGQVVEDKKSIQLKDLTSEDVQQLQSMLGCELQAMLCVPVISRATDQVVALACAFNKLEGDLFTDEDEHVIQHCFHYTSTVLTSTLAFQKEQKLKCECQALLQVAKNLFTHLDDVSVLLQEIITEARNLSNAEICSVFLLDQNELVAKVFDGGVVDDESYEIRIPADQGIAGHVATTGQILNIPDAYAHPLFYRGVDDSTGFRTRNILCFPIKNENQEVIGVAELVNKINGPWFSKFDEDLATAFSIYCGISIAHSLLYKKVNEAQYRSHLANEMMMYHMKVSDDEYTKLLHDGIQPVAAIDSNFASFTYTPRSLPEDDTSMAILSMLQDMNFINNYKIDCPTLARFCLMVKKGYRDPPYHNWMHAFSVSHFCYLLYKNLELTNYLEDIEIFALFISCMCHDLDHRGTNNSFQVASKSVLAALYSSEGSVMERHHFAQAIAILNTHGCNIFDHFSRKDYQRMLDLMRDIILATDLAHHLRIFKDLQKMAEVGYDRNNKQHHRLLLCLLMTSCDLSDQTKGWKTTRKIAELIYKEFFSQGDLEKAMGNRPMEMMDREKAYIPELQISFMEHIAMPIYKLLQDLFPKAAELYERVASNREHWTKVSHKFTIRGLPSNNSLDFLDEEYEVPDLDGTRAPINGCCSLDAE
# test name: IMAP FP PDE selectivity panel, human PDE2A1
# Format: biochemical
# setup conditions: Human PDE2, Lab A; read-out: Human PDE2 Ki (nM) - Lab A

Past entries and their recorded results:
compound=C[C@@H](NC(=O)c1cc(=O)[nH]c(-c2ccccc2)n1)c1ccc(CC(F)(F)F)cc1 assay_value="4.1 nM"
compound=C[C@@H](NC(=O)c1cc(=O)[nH]c(C2CC2)n1)c1ccc(-c2ccccc2)cc1 assay_value="6 nM"

Give Ki for CCc1ccc(C(C)NC(=O)c2cc(=O)[nH]c(-c3ccccc3)n2)cc1 (stereo not shown)
12 nM

Please report Ki for the following compound: O=C(NC1(c2ccc(C(F)(F)F)cc2)CC1)c1cc(=O)[nH]c(C2CC2)n1
12 nM

---

Entries and their Ki values follow.
# subject of test: UniProtKB O00408
# test name: IMAP FP PDE selectivity panel, human PDE2A1
# Format: biochemical
# setup conditions: Human PDE2, Lab B; read-out: Human PDE2 Ki (nM) - Lab B

For orientation, consider the following solved cases.
molecule="CC(NC(=O)c1cc(=O)[nH]c(C2CC2)n1)c1ccc(C2(C(F)(F)F)CC2)cc1 (single isomer, unassigned) [Example 688]" assay_readout=Ki assay_value="> 2960 nM"
molecule="Cc1nc(C(=O)NC(C)c2ccc(C(F)(F)C(F)(F)F)cc2)cc(=O)[nH]1 (single isomer, unassigned)" assay_readout=Ki assay_value="> 2960 nM"

Now let's try a different one.
Determine its reported Ki: CC(NC(=O)c1cc(=O)[nH]c(-c2ncccn2)n1)c1ccc(C2(C(F)(F)F)CC2)cc1 (single isomer, unassigned) [Example 692]
> 2960 nM

---

# subject of test: Rhesus PDE2A3 (Macaca mulatta, UniProt B3VTJ2)
# test name: PDE2 fluorescence polarization (IMAP FP) inhibition assay, rhesus enzyme
# Type: biochemical, rhesus macaque
# setup conditions: Rhesus PDE2, Lab A; read-out: Rhesus PDE2 Ki (nM) - Lab A
The following compounds are listed with their measured Ki values.
Just the number please, in nM, no unit attached.

Below are worked cases with known answers.
compound="O=C(NCc1ccc(C(F)(F)F)cc1Cl)c1cc(=O)[nH]c(C2CC2)n1 [Example 229]" assay_value=864
compound="Cc1nc(C(=O)N[C@H](C)c2ccc(-c3ccc(C(F)(F)F)nc3)cc2)cc(=O)[nH]1 [Example 321]" assay_value=911
compound="COC(=O)C(NC(=O)c1cc(=O)[nH]c(C)n1)c1ccc(C(F)(F)F)cc1 (racemic) [Example 325]" assay_value=1100

Continue with the next compound.
Entry O=C(NC1(c2ccc(OC(F)(F)F)c(F)c2)CC1)c1cc(=O)[nH]c(-c2ccccc2)n1 [Example 157] needs its Ki filled in; supply it.
4.8
